# reported IC50; entries follow
# System: A2780
# assay info: Cytotoxicity against human A2780 cells assessed as growth inhibition after 72 hrs by MTT assay
# Assay type: functional, cell-based
# conditions: A2780, 72 h
result type: IC50 (µM)

| smiles structure | result type | measurement qualifier | numeric readout |
| --- | --- | --- | --- |
| O=C1/C(=C\c2ccccc2)c2c(ncn2COCc2ccccc2)CCN1Cc1ccccc1 | IC50 | = | 20.4 |
| O=C1/C(=C\c2ccccc2)c2c(ncn2COCc2ccccc2)CCN1Cc1ccc(-c2ccccc2)cc1 | IC50 | = | 48.3 |
| O=C1/C(=C\c2ccccc2)c2c(ncn2COCc2ccccc2)CCN1Cc1ccc2ccccc2c1 | IC50 | = | 72.8 |
| COc1ccc(CN2CCc3ncn(COCc4ccccc4)c3/C(=C/c3ccccc3)C2=O)cc1 | IC50 | = | 43.1 |
| O=C1/C(=C\c2ccncc2)c2c(ncn2COCc2ccccc2)CCN1Cc1ccccc1 | IC50 | > | 100 |
| O=C1/C(=C\c2ccc(C(F)(F)F)cc2)c2c(ncn2COCc2ccccc2)CCN1Cc1ccccc1 | IC50 | = | 28.2 |
| Cc1cccc(CN2CCc3ncn(COCc4ccccc4)c3/C(=C/c3ccccc3)C2=O)c1 | IC50 | = | 26.3 |

// data source = ChEMBL document CHEMBL4184278
